target: purified SARS-CoV-2 nsp5 protein (Severe acute respiratory syndrome coronavirus 2, UniProt P0DTD1)
pIC50: −log10 of the molar value.
assay_metric: pIC50

Ask | Give its pIC50 value. Item: COc1cc(NC(=O)Nc2cccc(CNC(=O)O[C@H]3CCOC3)c2)ccc1-c1cnco1
Reply | < 3.22

----------
biological target: SARS-CoV-2 nsp5 (nsp4-5-6 WT) (Severe acute respiratory syndrome coronavirus 2); test: cell-based; settings: HEK-293T, read-out: Secondary screen nsp5-WT RLU (%)
Please provide measured inhibition at 10 µM for the entries that follow.
Number only, in %; omit the unit.

Ask | Give its inhibition at 10 µM value. Item: O=C(NC(Cc1cc(=O)[nH]c2ccccc12)C(=O)O)c1ccc(Cl)cc1 (stereo not shown) [compound 43, Rebamipide]
Reply | -1.5

Ask | Give its inhibition at 10 µM value. Item: CC(C)(C)c1cnc(CSc2cnc(NC(=O)C3CCNCC3)s2)o1
Reply | 10.7

Ask | Give its inhibition at 10 µM value. Item: CCOC(=O)C1=C(C)NC(C)=C(C(=O)OCC)C1c1ccccc1/C=C/C(=O)OC(C)(C)C
Reply | 8.9

Ask | Give its inhibition at 10 µM value. Item: C=CC(=O)Nc1cccc(Nc2nc(Nc3ccc(N4CCN(C(C)=O)CC4)cc3OC)ncc2C(F)(F)F)c1
Reply | 9.7

Ask | Give its inhibition at 10 µM value. Item: Cc1cnc(Nc2ccc(OCCN3CCCC3)cc2)nc1Nc1cccc(S(=O)(=O)NC(C)(C)C)c1 [compound 6, Fedratinib (SAR302503)]
Reply | 57.6

Ask | Give its inhibition at 10 µM value. Item: COc1cc(NC(=O)Nc2cccc(CNC(=O)O[C@H]3CCOC3)c2)ccc1-c1cnco1
Reply | 39

Ask | Give its inhibition at 10 µM value. Item: O=C(Nc1c[nH]nc1-c1nc2ccc(CN3CCOCC3)cc2[nH]1)NC1CC1
Reply | 14.7
